Recorded MRT for the following compounds
# protocolText: In vivo IV pharmacokinetics, rat cassette
# conditionLabel: Sprague-Dawley, plasma, 0.2 mg/kg, male SD rats, 0.2 mpk IV
propertyLabel: MRT (h)

                          chemicalstructure  reportedresult
0  Cc1cc(Cl)cc2sc(O[C@H]3CCN(C(=O)CCCS(=O)(=O)c4cccc(Br)c4)C[C@@H]3F)nc12            2.36
1  Cc1cc(Cl)cc2sc(O[C@@H]3CCN(C(=O)CCCS(=O)(=O)c4cccc(Br)c4)C[C@H]3F)nc12            1.58
2  Cc1cc(Cl)cc2sc(O[C@@H]3CCN(C(=O)CCCS(=O)(=O)c4cccc(Br)c4)C[C@@H]3F)nc12             1.7
3  O=C(c1ccc(OCc2ccc(OC(F)(F)F)cc2)cc1)N1CCN(c2ccc(C(F)(F)F)cn2)CC1            2.66
4  Cc1cc(Cl)cc2sc(O[C@H]3CCN(C(=O)CCCS(=O)(=O)c4cccc(Br)c4)C[C@H]3F)nc12            2.09
